# test-system: VIM-2 (Pseudomonas aeruginosa, UniProt Q9K2N0)
# Construct: The activity of purified VIM-2 was measured spectrophotometrically; made in house
# procedure-text: VIM-2 enzyme kinetics with nitrocefin, competitive inhibition model
# Format: biochemical
# measurement-conditions: inhibitor fixed at 500 μM, nitrocefin 5 to 100 μM, PBS pH 7.4, 10 min pre-incubation; read-out: VIM-2, Ki
# label = met if Ki < 40 µM else not met

1. O=C1c2c(O)cc(O)cc2OC(c2ccc(O)c(O)c2)C1O (stereo not drawn)	met
2. O=C(O)[C@H]1O[C@@H](Oc2cc(O)c3c(=O)cc(-c4ccc(O)c(O)c4)oc3c2)[C@H](O)[C@@H](O)[C@@H]1O [11b]	not met
3. O=c1cc(-c2ccc(O)c(O)c2)oc2cc(O)cc(O)c12 [11a]	met
4. O=c1cc(-c2ccc(O)c(O)c2)oc2c(C3OC(CO)C(O)C(O)C3O)c(O)cc(O)c12 (stereo not drawn)	met
5. O=c1c(O)c(-c2cc(O)c(O)c(O)c2)oc2cc(O)cc(O)c12	not met

Data origin: paper PMC10673258
